Measured IC50 values are reported for all entries that follow.
# Test target: full length active recombinant SYK enzyme (Homo sapiens)
# Construct: full length active recombinant SYK enzyme (Millipore, Calif.); purchased Millipore
# Method notes: Inhibition of Syk tyrosine phosphorylation activity (LANCE TR-FRET)
# Assay type: biochemical
# Measurement conditions: Table 3; 1 nM SYK, 100 μM ATP; read-out: Syk IC50 code
# Protocol: The in vitro and in vivo human syk activities of the inventive compounds can be determined by various procedures known in the art, such as a test for their ability to inhibit the activity of human plasma syk. […] Inhibition of Syk Tyrosine Phosphorylation Activity Potency of candidate molecules for inhibiting syk tyrosine phosphorylation activity is assessed by measuring the ability of a test compound to inhibit syk-mediated tyrosine phosphorylation of a syk-specific substrate. […]
Parameter measured: IC50

O=C1CNc2nc(Nc3ccc4cn[nH]c4c3)nc(NC3CCC3)c21 [Example 51]; 100 to 1000 nM
CN(C)CC(=O)N(C)c1ccc(Nc2nc(NC3CCC3)c3cc[nH]c3n2)cc1 [Example 84]; 100 to 1000 nM
COCCNc1nc(Nc2ccc3cn[nH]c3c2)nc2[nH]ccc12 [Example 89]; 100 to 1000 nM
CCOC(=O)CN1C(=O)CCc2cc(Nc3nc(NC4CCC4)c4cc[nH]c4n3)ccc21 [Example 69]; 10 to 100 nM
CC(=O)N1CCN(c2ccc(Nc3nc(Nc4cccc(S(N)(=O)=O)c4)c4cc[nH]c4n3)cc2)CC1 [Example 96A]; 100 to 1000 nM
CC(=O)N1CCN(c2ccc(Nc3ncc(F)c(N4CCNCC4)n3)cc2)CC1 [Example 124]; > 1000 nM
CN(C)CCNC(=O)CN1C(=O)CCc2cc(Nc3nc(NC4CCC4)c4cc[nH]c4n3)ccc21 [Example 71]; 100 to 1000 nM
CN1C(=O)CCc2cc(Nc3nc(NCc4ccccc4)c4c(-c5ccncc5)c[nH]c4n3)ccc21 [Example 114]; 100 to 1000 nM
